Readings of microsomal CLint for the listed compounds
assay: Intrinsic clearance in human liver microsomes in absence of NADPH by LC-MS/MS method; type: ADME, microsome; settings: read-out: CLH

In the examples that follow, each entry is paired with its recorded microsomal CLint.
| compound | microsomal CLint |
| --- | --- |
| C/C(=N\NC(=N)N)c1ccc(NC(=O)Nc2ccc(OC3CCCCCC3)cc2)cc1 | 42.9 µL/min/mg |
| CC(=O)CC(c1ccccc1)c1c(O)c2ccccc2oc1=O (stereo not drawn) | < 9.6 µL/min/mg |

// below: microsomal CLint requested for another compound
# lookup: microsomal CLint of `Cc1ncc2n1-c1ccc(Cl)cc1C(c1ccccc1F)=NC2`
< 9.6 µL/min/mg

====

system: Staphylococcus aureus; assay: Bactericidal activity against methicillin-resistant Staphylococcus aureus USA400 assessed as time required to reduce log10CFU of bacterial load at 4 times MIC by time kill assay; type: functional
measured_metric: Time

| query_smiles | recorded_result |
| --- | --- |
| C/C(=N\NC(=N)N)c1ccc(NC(=O)Nc2ccc(OCCC(C)C)cc2)cc1 | <=4 hr |
| CN[C@H](CC(C)C)C(=O)N[C@H]1C(=O)N[C@@H](CC(N)=O)C(=O)N[C@H]2C(=O)N[C@H]3C(=O)N[C@H](C(=O)N[C@H](C(=O)O)c4cc(O)cc(O)c4-c4cc3ccc4O)[C@H](O)c3ccc(c(Cl)c3)Oc3cc2cc(c3O[C@@H]2O[C@H](CO)[C@@H](O)[C@H](O)[C@H]2O[C@H]2C[C@](C)(N)[C@H](O)[C@H](C)O2)Oc2ccc(cc2Cl)[C@H]1O | 24 h |
| C/C(=N\NC(=N)N)c1ccc(NC(=O)Nc2ccc(OC3CCCCCC3)cc2)cc1 | <=4 hr |
| C/C(=N\NC(=N)N)c1ccc(NC(=O)Nc2ccc(OCCCC(C)C)cc2)cc1 | <=4 hr |

====

assay: Efflux ratio of apparent permeability across basolateral to apical over apical to basolateral side in human Caco2 cells at 10 uM after 2 hrs by LC-MS/MS method; assay type: ADME, cell-based; details: Caco-2
measured_metric: efflux ratio at 2 h, 10 µM

GET /values?readout=efflux ratio at 2 h, 10 µM&item= `C/C(=N\NC(=N)N)c1ccc(NC(=O)Nc2ccc(OC3CCCCCC3)cc2)cc1`
> 1000

====

assay: Total AUC in naive Sprague-Dawley rat at 50 mg/kg ,po administered via gavage by LC-MS/MS method; type: ADME, organism-based; parameters: dose 50 mg/kg, time AUCmax, route oral; conditions: in vivo
measured_metric: AUC (ng·h/mL)
Unit ng·h/mL implied. Number only.

Can you share its AUC? I mean this compound: `C/C(=N\NC(=N)N)c1ccc(NC(=O)Nc2ccc(OC3CCCCCC3)cc2)cc1`
384

====

assay: Apparent permeability across apical to basolateral side in human Caco2 cells at 10 uM after 2 hrs by LC-MS/MS method; assay type: ADME, cell-based; settings: Caco-2
measured_metric: Papp A→B at 2 h, 10 µM

| compound | Papp A→B at 2 h, 10 µM |
| --- | --- |
| C/C(=N\NC(=N)N)c1ccc(NC(=O)Nc2ccc(OC3CCCCCC3)cc2)cc1 | 0.039 ×10⁻⁶ cm/s |

Continue with the next compound.
// query Papp A→B at 2 h, 10 µM value for entry CC(=O)CC(c1ccccc1)c1c(O)c2ccccc2oc1=O (configuration not stated) [WARFARIN]
27.7 ×10⁻⁶ cm/s
